ASSAY_PROTOCOL: qHTS assay for small molecule agonists of the p53 signaling pathway (AID 651631); note: nearly all actives have a fitted effect of over 15% in size
MEASUREMENT_SETUP: HCT-116 p53RE-bla reporter, beta-lactamase FRET ratio, 16 h; series mostly up to 73.3 µM
Results filed as inconclusive are left out. The source made the active and inactive calls. Calls come from the whole dose curve.
Classes used: active, inactive

COMPOUND	CATEGORY_LABEL
ON=C1CCCC1	inactive
C=C(C)C(=O)OCC(O)COc1ccc(C(C)(C)c2ccc(OCC(O)COC(=O)C(=C)C)cc2)cc1 (stereo not given)	active
Cc1cc(=O)oc2cc(N(C)C)ccc12	active
CCCC1O[C@@H]2C[C@H]3[C@@H]4CCC5=CC(=O)C=C[C@]5(C)[C@H]4[C@@H](O)C[C@]3(C)[C@]2(C(=O)CO)O1 (stereo not given in full)	inactive
NC(=O)N1C(=O)C(C(=O)c2cc(Cl)cs2)c2cc(F)c(Cl)cc21 (stereo not given)	active
